Origin of the recorded values: patent US20220144812A1

Target: CREBBP (1084-1701) (Homo sapiens, UniProt Q92793)
Construct: measured in the following biochemical assay using CREBBP (1084-1701); purchased
Sequence (Q92793 1084-1701): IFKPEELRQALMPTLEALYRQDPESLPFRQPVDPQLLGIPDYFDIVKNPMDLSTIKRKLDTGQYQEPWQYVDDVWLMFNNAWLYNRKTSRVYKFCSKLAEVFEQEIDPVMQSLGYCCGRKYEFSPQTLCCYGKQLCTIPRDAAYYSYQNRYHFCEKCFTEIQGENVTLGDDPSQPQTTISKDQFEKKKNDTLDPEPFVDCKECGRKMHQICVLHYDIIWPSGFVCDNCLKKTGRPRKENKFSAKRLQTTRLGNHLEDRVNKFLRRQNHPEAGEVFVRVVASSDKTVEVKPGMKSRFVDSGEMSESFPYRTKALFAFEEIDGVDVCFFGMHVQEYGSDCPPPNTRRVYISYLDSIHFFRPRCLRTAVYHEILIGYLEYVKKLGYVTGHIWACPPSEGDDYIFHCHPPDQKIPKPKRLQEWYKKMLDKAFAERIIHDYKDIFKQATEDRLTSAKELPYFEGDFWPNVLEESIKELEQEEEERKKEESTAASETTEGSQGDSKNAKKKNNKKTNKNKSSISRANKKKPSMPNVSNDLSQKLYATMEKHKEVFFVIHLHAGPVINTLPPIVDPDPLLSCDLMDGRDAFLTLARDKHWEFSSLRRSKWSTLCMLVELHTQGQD
Assay: Biochemical assay for CREBBP (1084-1701), SAMDI
Details: SAMDI, read-out: CREBBP Biochemistry IC50
Just so you know, the groups by IC50 go like this: group A: < 800 nM; group B: ≥ 800 nM and < 6000 nM; group C: ≥ 6000 nM

// below: answered compounds
INSERT INTO results (compound, group_label) VALUES
  ('CCn1ncc(CN(C)C(=O)c2nc(-c3cnc(CO)n3C)nc3ccc(Cl)cc23)c1C', 'group C'),
  ('CCn1ncc(CN(C)C(=O)c2nc(-c3cn[nH]c3C)nc3ccc(Cl)cc23)c1C', 'group C'),
  ('CCn1ncc(CN(C)C(=O)c2cc(-c3ccccc3OC)nc3ccc(Cl)cc23)c1C', 'group A'),
  ('CCn1ncc(CN(C)C(=O)c2nc(-c3cn[nH]c3)nc3ccc(Cl)cc23)c1C [Compound 125]', 'group C'),
  ('CCn1ncc(CN(C)C(=O)c2nc(-c3cc(Cl)ccn3)nc3ccc(Cl)cc23)c1C', 'group B'),
  ('CCc1ncc(CN(C)C(=O)c2cc(-c3ccc(NCCNC)c(C)n3)nc3ccc(Cl)cc23)o1', 'group A'),
  ('CCn1ncc(CN(C)C(=O)c2cc(-c3cn(C)cn3)nc3cc(Cl)ccc23)c1C', 'group C'),
  ('CCn1ncc(CN(C)C(=O)c2cc(-c3ncccc3OC)nc3ccc(Cl)cc23)c1C', 'group C');

Query: Band of CCn1ncc(CN(C)C(=O)c2cc(-c3cc(C4=NCCN4)n(C)n3)nc3ccc(Cl)cc23)c1C ?
Reply: group A

Query: Band of CCn1ncc(CN(C)C(=O)c2cc(-c3cc(NC(=O)CNC)cc(C)n3)nc3ccc(Cl)cc23)c1C ?
Reply: group A

* * *

Biological target: EP300 (P300(1048-1664)) (Homo sapiens, UniProt Q09472)
Construct: P300(1048-1664)
Sequence (Q09472 1048-1664): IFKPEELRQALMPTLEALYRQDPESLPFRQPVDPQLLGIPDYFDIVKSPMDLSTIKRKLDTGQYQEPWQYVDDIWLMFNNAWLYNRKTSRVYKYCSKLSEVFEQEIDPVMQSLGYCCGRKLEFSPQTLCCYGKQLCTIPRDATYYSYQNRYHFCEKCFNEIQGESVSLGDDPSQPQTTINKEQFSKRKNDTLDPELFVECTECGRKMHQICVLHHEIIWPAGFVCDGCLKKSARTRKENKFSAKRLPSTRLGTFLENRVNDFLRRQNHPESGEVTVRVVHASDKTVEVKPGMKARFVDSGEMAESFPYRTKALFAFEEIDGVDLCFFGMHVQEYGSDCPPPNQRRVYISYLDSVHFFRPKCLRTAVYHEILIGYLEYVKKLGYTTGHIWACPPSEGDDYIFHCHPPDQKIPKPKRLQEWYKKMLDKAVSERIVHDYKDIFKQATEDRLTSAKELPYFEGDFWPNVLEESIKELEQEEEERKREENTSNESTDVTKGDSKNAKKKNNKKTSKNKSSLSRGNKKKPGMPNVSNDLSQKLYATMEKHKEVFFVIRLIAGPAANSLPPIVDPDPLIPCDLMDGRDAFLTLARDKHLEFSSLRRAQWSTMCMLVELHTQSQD
Assay: Biochemical assay for EP300, SAMDI
Conditions: EP300, SAMDI; read-out: EP300 Biochemistry IC50
observable: IC50 (nM)
Dear colleague, please return just the value in nM, with no unit written.

Before answering, review these 5 worked examples.
INSERT INTO measurements (molecule, units_text, assay_value) VALUES
  ('CCn1ncc(CN(C)C(=O)c2cc(-c3ccc(NCC(O)CN(C)C)c(C)n3)nc3ccc(Cl)cc23)c1C (stereo not drawn)', 'nM', 11.4),
  ('CCn1ncc(CN(C)C(=O)c2cc(-c3cc(NCCNC)cc(C)n3)nc3ccc(Cl)cc23)c1C', 'nM', 23),
  ('CCn1ncc(CN(C)C(=O)c2nc(-c3ccc(OCCNC(=O)C(C)C)c(Cl)c3)nc3ccc(Cl)cc23)c1C', 'nM', 180),
  ('CCc1cc(-c2nc(C(=O)N(C)Cc3cnn(CC)c3C)c3cc(Cl)ccc3n2)ccc1NC1CCOCC1', 'nM', 23),
  ('CCn1ncc(CN(C)C(=O)c2nc(-c3ccc(OCC(O)CNC)cc3Cl)nc3ccc(Cl)cc23)c1C (stereo not drawn)', 'nM', 10);

Query: // IC50 lookup, key: CCn1ncc(CN(C)C(=O)c2cc(-c3ccc(OCCNC)c(C)n3)nc3ccc(Cl)cc23)c1C
Reply: 414

Query: // IC50 lookup, key: CCn1ncc(CN(C)C(=O)c2nc(-c3cc4nc[nH]c4cc3Cl)nc3ccc(Cl)cc23)c1C
Reply: 170

Query: // IC50 lookup, key: CCn1ncc(CN(C)C(=O)c2nc(-c3cc(C)cc(NC4CCNCC4)c3)nc3ccc(Cl)cc23)c1C
Reply: 7

Query: // IC50 lookup, key: CCc1ncc(CN(C)C(=O)c2cc(-c3ccc(NCC(O)CN(C)C)c(C)n3)nc3ccc(Cl)cc23)n1C (stereo not drawn)
Reply: 8.9

Query: // IC50 lookup, key: CCc1ncc(CN(C)C(=O)c2nc(-c3cc4c(NC)n[nH]c4cc3C)nc3ccc(Cl)cc23)n1C
Reply: 5.7

Query: // IC50 lookup, key: CCn1ncc(CN(C)C(=O)c2cc(-c3cc(CNC)cc(C)n3)nc3ccc(Cl)cc23)c1C
Reply: 392

Query: // IC50 lookup, key: CCn1ncc(CN(C)C(=O)c2cc(-c3csc(C)n3)nc3ccc(Cl)cc23)c1C
Reply: 210

Query: // IC50 lookup, key: CCc1ncc(CN(C)C(=O)c2nc(-c3ccc(NCCN(C)C)nc3C)nc3ccc(Cl)cc23)n1C
Reply: 3090

Query: // IC50 lookup, key: CCn1ncc(CN(C)C(=O)c2nc(-c3cc4c(N)n(CCNC)nc4cc3C)nc3ccc(Cl)cc23)c1C
Reply: 49.4

Query: // IC50 lookup, key: CCn1ncc(CN(C)C(=O)c2nc(-c3cc(Cl)c4nc[nH]c4c3)nc3ccc(COC)cc23)c1C
Reply: 3.7
